Cited source: patent US20100331305A1

- TARGET_OR_SYSTEM: mTOR enzyme (mTOR(1360-2549)+GBL) (Homo sapiens)
- ASSAY_EXPLANATION: In vitro mTOR kinase assay (TR-FRET)
- EXPERIMENTAL_CONDITIONS: 0.25 nM mTOR+GBL, 8 uM ATP; values tied to compounds by order of Table 1; 'x or y' = two alternative values for separated diastereomers of unassigned stereochemistry; read-out: activity level (Ki) in the mTOR kinase assay
METRIC_NAME: pKi
Answers are plain numbers, as −log10 of the molar value.

Some solved entries appear below for comparison.
C[C@H]1COCCN1c1nc(-c2ccc(Nc3cccc(=O)[nH]3)cc2)nc2c1COCC2 ... 8.30
CCNC(=O)N(CC)C(=O)Nc1ccc(-c2nc3c(c(N4CCOC[C@@H]4C)n2)CCOC3)cc1 ... 5.93
CC[C@H]1COCCN1c1nc(-c2ccc(Nc3nccc(=O)[nH]3)cc2)nc2c1COCC2 ... 9.00
Nc1ccc(-c2nc3c(c(N4C[C@H]5CC[C@@H](C4)O5)n2)CCCO3)cn1 ... 7.52
COC1CCN(c2nc(-c3ccc(NC(=O)NC4COC4)cc3)nc3c2CCC2(CC2)O3)CC1 ... 6.21
CCNC(=O)Nc1ccc(-c2nc3c(c(N4CCOCC4)n2)COC(c2ccccn2)C3)cc1 (centres unmarked) ... 7.57

For each listed entry, give its pKi.
1. C[C@H]1COCCN1c1nc(-c2ccc(NC(=O)NC3COC3)cc2)nc2c1CCCO2
2. COC1CCN(c2nc(-c3ccc(NC(=O)Nc4ccn(C)n4)cc3)nc3c2CCC2(CC2)O3)CC1

[reply]
[8.40, 6.05]

* * *

For each of the compounds below, state its Ki.
- TARGET_OR_SYSTEM: mTOR enzyme (mTOR(1360-2549)+GBL) (Homo sapiens, UniProt P42345)
- Sequence (P42345 1360-2549, species assumed): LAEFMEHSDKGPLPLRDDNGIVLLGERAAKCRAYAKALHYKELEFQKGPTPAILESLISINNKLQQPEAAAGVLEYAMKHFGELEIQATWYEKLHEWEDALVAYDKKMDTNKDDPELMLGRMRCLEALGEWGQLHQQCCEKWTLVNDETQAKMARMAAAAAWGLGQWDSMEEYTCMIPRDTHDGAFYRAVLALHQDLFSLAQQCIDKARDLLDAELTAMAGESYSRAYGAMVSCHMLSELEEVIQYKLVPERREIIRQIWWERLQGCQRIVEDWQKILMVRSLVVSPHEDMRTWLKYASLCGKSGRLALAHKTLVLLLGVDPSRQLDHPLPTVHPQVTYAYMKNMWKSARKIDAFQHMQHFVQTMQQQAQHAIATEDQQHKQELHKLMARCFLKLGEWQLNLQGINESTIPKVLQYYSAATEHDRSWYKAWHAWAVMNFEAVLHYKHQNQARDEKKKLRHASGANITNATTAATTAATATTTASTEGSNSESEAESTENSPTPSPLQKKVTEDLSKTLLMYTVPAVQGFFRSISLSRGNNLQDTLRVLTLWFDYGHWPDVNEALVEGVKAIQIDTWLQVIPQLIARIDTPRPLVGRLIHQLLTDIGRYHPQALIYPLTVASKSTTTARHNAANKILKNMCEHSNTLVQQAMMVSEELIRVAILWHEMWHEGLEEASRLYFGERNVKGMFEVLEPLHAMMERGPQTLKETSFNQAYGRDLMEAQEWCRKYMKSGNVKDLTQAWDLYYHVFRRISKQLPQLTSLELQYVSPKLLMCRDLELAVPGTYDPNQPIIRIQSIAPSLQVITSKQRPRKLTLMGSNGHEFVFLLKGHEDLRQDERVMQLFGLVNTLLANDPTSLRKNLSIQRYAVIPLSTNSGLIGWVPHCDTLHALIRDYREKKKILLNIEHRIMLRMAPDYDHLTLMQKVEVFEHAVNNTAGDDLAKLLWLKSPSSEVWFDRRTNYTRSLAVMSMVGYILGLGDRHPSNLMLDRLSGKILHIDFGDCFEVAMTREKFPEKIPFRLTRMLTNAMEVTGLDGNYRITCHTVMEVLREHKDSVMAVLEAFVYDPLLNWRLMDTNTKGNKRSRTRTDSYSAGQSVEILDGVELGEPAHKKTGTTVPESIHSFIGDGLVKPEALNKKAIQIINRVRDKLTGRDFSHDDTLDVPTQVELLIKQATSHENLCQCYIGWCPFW
- Sequence (Q9BVC4 whole entry partner, species assumed): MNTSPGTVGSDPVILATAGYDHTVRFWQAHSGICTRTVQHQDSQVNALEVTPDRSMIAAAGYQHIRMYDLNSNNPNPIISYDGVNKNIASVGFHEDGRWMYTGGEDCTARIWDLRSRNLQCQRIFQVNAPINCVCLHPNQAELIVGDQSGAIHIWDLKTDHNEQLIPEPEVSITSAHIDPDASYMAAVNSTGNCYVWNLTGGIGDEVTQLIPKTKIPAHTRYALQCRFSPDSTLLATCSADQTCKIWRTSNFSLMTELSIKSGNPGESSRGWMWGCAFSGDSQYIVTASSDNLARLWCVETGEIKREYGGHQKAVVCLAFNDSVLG
- ASSAY_EXPLANATION: In vitro mTOR kinase assay (TR-FRET)
- EXPERIMENTAL_CONDITIONS: 0.25 nM mTOR+GBL, 8 uM ATP; values tied to compounds by order of Table 1; 'x or y' = two alternative values for separated diastereomers of unassigned stereochemistry; read-out: activity level (Ki) in the mTOR kinase assay
Give bare numbers, in nM.

Some solved entries appear below for comparison.
CC1(C)OCc2c(N3C[C@H]4C[C@@H]3CO4)nc(-c3cnc(N)nc3)nc21 [Example 105] ... 88
CCNC(=O)Nc1ccc(-c2nc3c(c(N4C[C@@H]5C[C@H]4CO5)n2)CCCO3)cc1 [Example 3] ... 22
CCNC(=O)Nc1ccc(-c2nc(N3CCOC[C@@H]3C)c3c(n2)[C@](C)(CCN(C)CC)OC3)cc1 [Example 78 eq (S)] ... 21

For each listed entry, give its Ki.
1. CCNC(=O)Nc1ccc(-c2nc3c(c(N4CCOC[C@@H]4C)n2)COC(C)(C)C3)cc1
2. C[C@H]1COCCN1c1nc(-c2ccc(NC(=O)NC3COC3)cc2)nc2c1CCC1(CC1)O2 [Example 51]
3. Cn1cc(NC(=O)Nc2ccc(-c3nc4c(c(N5CCOCC5)n3)CCC3(CC3)O4)cc2)cn1 [Example 45]
4. CC[C@H]1COCCN1c1nc(-c2ccc(Nc3cccc(=O)[nH]3)cc2)nc2c1COCC2 [Example 5]
5. CCNC(=O)Nc1ccc(-c2nc3c(c(N4CCOC[C@@H]4C)n2)CCC2(CC2)O3)cc1 [Example 49]

[reply]
[3, 1, 2, 2, 0.3]

* * *

For each of the molecules below, state its pKi.
- TARGET_OR_SYSTEM: mTOR enzyme (mTOR(1360-2549)+GBL) (Homo sapiens, UniProt P42345)
- ASSAY_EXPLANATION: In vitro mTOR kinase assay (TR-FRET)
- EXPERIMENTAL_CONDITIONS: 0.25 nM mTOR+GBL, 8 uM ATP; values tied to compounds by order of Table 1; 'x or y' = two alternative values for separated diastereomers of unassigned stereochemistry; read-out: activity level (Ki) in the mTOR kinase assay
Numbers only, as −log10 of the molar value.

Nc1ccc(-c2nc3c(c(N4[C@@H]5CC[C@H]4COC5)n2)CCCO3)cn1 ... 7.49
Cn1ccc(NC(=O)Nc2ccc(-c3nc4c(c(N5CCOCC5)n3)CCC3(CC3)O4)cc2)n1 ... 8.70
C[C@H]1COCCN1c1nc(-c2ccc(Nc3nccc(=O)[nH]3)cc2)nc2c1CCCO2 ... 9.00
CCCC1(C)OCc2c(N3CCOC[C@@H]3C)nc(-c3ccc(NC(=O)NCC)cc3)nc21 (some centres unmarked) ... 8.70
CCNC(=O)Nc1ccc(-c2nc3c(c(N4CCOC[C@@H]4C)n2)CCCO3)cc1 ... 8.70

For each listed entry, give its pKi.
1. CCNC(=O)Nc1ccc(-c2nc(N3CCOC[C@@H]3C)c3c(n2)C(C)(CCn2ccnc2)OC3)cc1 (single isomer, unassigned) [Example 80 es (R)]
2. C[C@H]1COCCN1c1nc(-c2ccc(Nc3nccc(=O)[nH]3)cc2)nc2c1COCC2
3. CCNC(=O)Nc1ccc(-c2nc3c(c(N4CCOC[C@@H]4C)n2)CCOC3)cc1

[reply]
1: 8.05; 2: 8.70; 3: 8.70

* * *

For each of the molecules below, state its Ki.
- TARGET_OR_SYSTEM: mTOR enzyme (mTOR(1360-2549)+GBL) (Homo sapiens, UniProt P42345)
- ASSAY_EXPLANATION: In vitro mTOR kinase assay (TR-FRET)
- EXPERIMENTAL_CONDITIONS: 0.25 nM mTOR+GBL, 8 uM ATP; values tied to compounds by order of Table 1; 'x or y' = two alternative values for separated diastereomers of unassigned stereochemistry; read-out: activity level (Ki) in the mTOR kinase assay

For each listed entry, give its Ki.
1. O=C(NCCO)Nc1ccc(-c2nc3c(c(N4[C@@H]5CC[C@H]4COC5)n2)CCC2(CC2)O3)cc1
2. C[C@H]1COCCN1c1nc(-c2ccc(NC(=O)Nc3cnn(C)c3)cc2)nc2c1COCC2
3. C[C@H]1COCCN1c1nc(-c2ccc(Nc3nccc(=O)[nH]3)cc2)nc2c1COC(CO)C2 (stereo partly shown)
4. C[C@H]1COCCN1c1nc(-c2ccc3onc(N)c3c2)nc2c1COC2(C)C

[reply]
1 nM
4 nM
4 nM
390 nM

* * *

- TARGET_OR_SYSTEM: mTOR enzyme (mTOR(1360-2549)+GBL) (Homo sapiens, UniProt P42345)
- ASSAY_EXPLANATION: In vitro mTOR kinase assay (TR-FRET)
- Assay type: biochemical
- EXPERIMENTAL_CONDITIONS: 0.25 nM mTOR+GBL, 8 uM ATP; values tied to compounds by order of Table 1; 'x or y' = two alternative values for separated diastereomers of unassigned stereochemistry; read-out: activity level (Ki) in the mTOR kinase assay
- Description: a. In Vitro mTOR Kinase Assay The reaction is stopped by an addition of a Terbium-labeled phospho-specific antibody, e.g., Tb-labeled anti-p4E-BP1 T37/T46, (Invitrogen, product #PR8835A), EDTA, and TR-FRET buffer solution (Invitrogen, Product #PR3756B). Product formation is detected by way of time-resolved fluorescence resonance energy transfer (TR-FRET), which occurs when the phosphorylated substrate and labeled antibody are in close proximity due to phospho-specific binding. […]
For each of the molecules below, state its Ki.
Answers are plain numbers, in nM.

Some solved entries appear below for comparison.
C=CC[C@@]1(C)OCc2c(N3CCOC[C@@H]3C)nc(-c3ccc(NC(=O)NCC)cc3)nc21 ... 2
O=C(Nc1ccc(-c2nc3c(c(N4[C@@H]5CC[C@H]4COC5)n2)CCCO3)cc1)NC1COC1 ... 5
CC1(C)OCc2c(N3CCOCC3)nc(-c3ccc4onc(N)c4c3)nc21 ... 567

For each listed entry, give its Ki.
1. CCNC(=O)Nc1ccc(-c2nc3c(c(N4CCOC[C@@H]4C)n2)COC3=O)cc1
2. CCNC(=O)Nc1ccc(-c2nc3c(c(N4CCOC[C@@H]4CC)n2)COCC3)cc1
3. CCNC(=O)Nc1ccc(-c2nc(N3CCOC[C@@H]3C)c3c(n2)[C@@](C)(CCN(C)CC)OC3)cc1 [Example 78 eq (R)]
4. CC1(C)OCc2c(N3CCOCC3)nc(-c3ccc(N)nc3)nc21

[reply]
1. 76
2. 1
3. 47
4. 17

* * *

- TARGET_OR_SYSTEM: mTOR enzyme (mTOR(1360-2549)+GBL) (Homo sapiens, UniProt P42345)
- ASSAY_EXPLANATION: In vitro mTOR kinase assay (TR-FRET)
- EXPERIMENTAL_CONDITIONS: 0.25 nM mTOR+GBL, 8 uM ATP; values tied to compounds by order of Table 1; 'x or y' = two alternative values for separated diastereomers of unassigned stereochemistry; read-out: activity level (Ki) in the mTOR kinase assay
METRIC_NAME: Ki
Please append the unit to your numeric answer.

CCNC(=O)Nc1ccc(-c2nc3c(c(N4CCOC[C@@H]4CC)n2)CCCO3)cc1 ... 1 nM
CCNC(=O)N(CC)C(=O)Nc1ccc(-c2nc3c(c(N4CCOCC4)n2)CCOC3)cc1 ... 4330 nM

For each listed entry, give its Ki.
1. CC1(C)OCc2c(N3CCOCC3)nc(-c3ccc4nc(N)oc4c3)nc21
2. CCNC(=O)Nc1ccc(-c2nc(N3CCOC[C@@H]3C)c3c(n2)C(C)(CCn2ccnc2)OC3)cc1 (single isomer, unassigned) [Example 80 es (S)]
3. C=CC[C@]1(C)OCc2c(N3CCOCC3)nc(-c3ccc(NC(=O)NCC)cc3)nc21 [Example 73 eb (S)]
4. C[C@H]1COCCN1c1nc(-c2ccc3oc(N)nc3c2)nc2c1COC2(C)C
5. COCC[C@@]1(C)OCc2c(N3CCOC[C@@H]3C)nc(-c3cnc(N)nc3)nc21 [Example 101 go (R)]
6. C[C@H]1COCCN1c1nc(-c2cnc(N)nc2)nc2c1CO[C@@]2(C)CCOc1ccccc1 [Example 104 gs (S)]
7. CCNC(=O)Nc1ccc(-c2nc3c(c(N4CCOC[C@@H]4C)n2)COC3)cc1

[reply]
["269 nM", "2 nM", "2 nM", "43 nM", "258 nM", "231 nM", "9 nM"]

For each listed entry, give its Ki.
1. CNS(=O)(=O)c1ccc(-c2nc3c(c(N4CCOC[C@@H]4C)n2)COCC3)cc1
2. CC[C@H]1COCCN1c1nc(-c2ccc(N)nc2)nc2c1CCCO2
3. C[C@H]1COCCN1c1nc(-c2ccc(S(C)(=O)=O)cc2)nc2c1COCC2
4. C[C@H]1COCCN1c1nc(-c2ccc(NC(=O)NCCC#N)cc2)nc2c1CCC1(CC1)O2
5. C[C@H]1COCCN1c1nc(-c2ccc(NC(=O)Nc3ccn(C)n3)cc2)nc2c1COCC2

[reply]
343 nM
11 nM
102 nM
2 nM
3 nM

For each listed entry, give its Ki.
1. CCNC(=O)Nc1ccc(-c2nc(N3CCOC[C@@H]3C)c3c(n2)[C@](C)(CCN2CCOCC2)OC3)cc1 [Example 76 eo (S)]
2. CC1(C)OCc2c(N3CCOCC3)nc(-c3ccc4nc(N)[nH]c4c3)nc21

[reply]
["293 nM", "4 nM"]
